Molecular target: T1, Ara h 6 (Arachis hypogaea allergen 6) (Arachis hypogaea, UniProt Q647G9 22-145)
T1 construct: Peanut allergen; also called Ara h 6.0101; nAra h 6
T1 sequence: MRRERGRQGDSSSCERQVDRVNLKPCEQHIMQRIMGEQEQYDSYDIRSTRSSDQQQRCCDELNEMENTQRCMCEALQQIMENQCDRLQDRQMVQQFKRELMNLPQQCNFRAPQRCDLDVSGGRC
Experiment: ELISA, Fab titration on coated Ara h 6
RECORDED_ENDPOINT: binding result

Some binders with recorded binding result:
MY006-15E3 Fab Hf (Fab, V domains shown, Germlined variant, IgG1-Fab format; also called 15E3 Hf) VH: EVQLVESGGGLVQPGGSLRLSCAASGFKFSTFYMTWVRQAPGKGLEWVANIKQDGSEKDYLDSVRGRFTISRDNAKNSLYLQMNSLRAEDTAVYYCTRNGLQDSYSGDFFDHWGQGTLVTVSS VL: QSVLTQPPSISAAPGQKVTISCSGTGSNIGHNYVSWYQQLPRTAPRLLIFDNTKRPSGIPDRFSGSKSGSSATLGITGLQTGDEAHYFCATWDADLSAVLFGGGTKLTVL	binds
MY006-7G6 Fab Lg (Fab, V domains shown, Germlined variant, IgG1-Fab format; also called 7G6 Lg) VH: QVQLVESGGGVVQPGRSLRLSCAASGIAFNDYTMHWVRRSPDKGLEWVAAISYGGTNKYYADSVKGRFTISRDSSKNTLFLQMDSLRVEDTAVYYCARDSGYRSLLHWGQGTLVTVSS VL: EIVLTQSPLSLPVTPGEPASISCRSSQSLVHRNGYNYLDWYLQKPGQSPQLLIYMASKRASGVPDRFSGSGSGTDFTLKISRVEAEDVGVYYCMQALQTWTFGQGTKVEIK	binds
MY006-2F8 Fab Lg (Fab, V domains shown, Germlined variant, IgG1-Fab format; also called 2F8 Lg) VH: EVQLVESGGGLVKPGGSLRLSCAASGFIFSDYNMNWVRQAPGKGLEWVSSITRSSRTIYYADSVKGRFTISRDNAKNSLHLQMNSLRDADTAVYYCAREDFDVSTGPYYMDVWGNGTTVIVSS VL: EIVLTQSPGTLSLSPGERATLSCRASQSVSNMFLVWYQQKPGQAPRLLMYGASTRATGIPDRFSGSGSGTDFTLTISRLEPEDFAVYYCQQNGNSPYTFGQGTKLEIK	binds
MY006-7G6 Fab Hf (Fab, V domains shown, Germlined variant, IgG1-Fab format; also called 7G6 Hf) VH: QVQLVESGGGVVQPGRSLRLSCAASGIAFNDYTMHWVRQAPGKGLEWVAAISYGGTNKYYADSVKGRFTISRDNSKNTLYLQMNSLRAEDTAVYYCARDSGYRSLLHWGQGTLVTVSS VL: EIVLTQSPLSLPVTPGEPASISCRSSQSLVHRNGYNYLDWYLQKPGQSPQLLIYMASKRASGVPDRFSGSGSGTEFTLKISRVEAEDVGIYYCMQALQTWTFGQGTKVEVN	binds

Value of measured binding result for the entry MY006-7G6 Fab Hg Lg (Fab, V domains shown, Germlined variant, IgG1-Fab format) VH: QVQLVESGGGVVQPGRSLRLSCAASGIAFNDYTMHWVRRAPGKGLEWVAAISYGGTNKYYADSVKGRFTISRDSSKNTLYLQMNSLRAEDTAVYYCARDSGYRSLLHWGQGTLVTVSS VL: EIVLTQSPLSLPVTPGEPASISCRSSQSLVHRNGYNYLDWYLQKPGQSPQLLIYMASKRASGVPDRFSGSGSGTDFTLKISRVEAEDVGVYYCMQALQTWTFGQGTKVEIK : binds
